- TARGET UNDER TEST: human recombinant IL-17A (Homo sapiens)
- Construct: purchased R&D Systems 7955-IL/CF
- Sequence (Q16552 24-155): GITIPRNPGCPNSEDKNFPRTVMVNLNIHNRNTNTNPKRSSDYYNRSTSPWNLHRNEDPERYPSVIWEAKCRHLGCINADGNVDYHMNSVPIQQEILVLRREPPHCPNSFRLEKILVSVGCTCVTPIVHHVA
- ASSAY REMARKS: IL-17A AlphaLISA assay (block binding of IL-17A to its receptor IL-17RA)
- CONDITION NOTES: compounds pre-incubated with the IL-17A for 30 min (indicated by * in Table A); read-out: AlphaLISA pIC50 (converted)
OUTCOME MEASURE: IC50 (µM)

Sample answers from the record:
MOLECULE | IC50, µM
CCc1nocc1C(=O)N[C@H](C(=O)Nc1ccc(-c2c(C)cnn2C)cn1)[C@H]1CC[C@H](C)CC1 [Example 127] | 0.0398
CCn1nncc1C(=O)N[C@H](C(=O)Nc1ccc(-c2c(C)cnn2C)cn1)[C@H]1CC[C@H](C)CC1 [Example 168] | 0.158
Cc1cncc(C)c1-c1ccc(NC(=O)C(NC(=O)c2ccnn2C)C2CCCCCCC2)cc1 (stereo not shown) [Example 103] | 0.126
Cc1noc(C)c1-c1ccc(NC(=O)[C@@H](NC(=O)c2cnnn2C)C2CCCCCC2)nc1 [Example 117] | 0.501

[A] Cc1nccc(-c2ccc(NC(=O)[C@@H](NC(=O)c3ccnn3C)[C@H]3CC[C@H](C)CC3)nc2)c1C [Example 152]
[B] Cc1cnn(C)c1-c1ccc(NC(=O)[C@@H](NC(=O)c2ccnn2C)C2CCCCCC2)nc1 [Example 132]
[C] CCn1nccc1C(=O)N[C@H](C(=O)Nc1ccc(-c2c(C)noc2C)cn1)C1CCCCC1 [Example 118]
Order these by IC50, descending, and give the full ranking. Please list each label once, in the requested order.
A, C, B
(A: 0.794 µM, C: 0.158 µM, B: 0.0794 µM)
